Tested on: MALME-3M melanoma
method-description: NCI-60 one-dose screen, 48 h
condition-summary: 10 µM unless noted
Compounds without any hit were thinned out: in the full panel of roughly 83,000, 20% have a hit. The source made the active and inactive calls. The calls were made as follows: active = growth percent below 10; inactive = the rest.
Bench note: report the call from true for active, false for inactive

Below, 6 compounds whose answers are already recorded.
{"columns": ["compound", "tested-on", "assigned-category"],
 "data": [
  ["C/C(=N\\N1CC(=O)NC1=O)c1ccc([N+](=O)[O-])o1", "MALME-3M melanoma", "false"],
  ["Cc1cc(C(=O)O)c(C)cc1C(=O)O", "MALME-3M melanoma", "false"],
  ["Cc1cc(NC(=O)Nc2cc(Cl)ccc2C)no1", "MALME-3M melanoma", "false"],
  ["OC(c1cc(C(F)(F)F)nc2c(C(F)(F)F)cccc12)C1CCCCN1 (stereo not drawn)", "MALME-3M melanoma", "false"],
  ["Cn1[nH]cc(/C=N/C(N)=O)c1=O", "MALME-3M melanoma", "false"],
  ["COc1ccc(-c2csc(NC(=O)c3cc(OC)c(OC)c(OC)c3)n2)cc1", "MALME-3M melanoma", "false"]
]}

Q: Write down the call the test reported for this compound. Item: Fc1ccc(-c2nnc(-c3c(-c4ccc(F)cc4)nc4ncccn34)o2)cc1
Result: false

Q: Clc1cccc(Cc2cn3cc(-c4ccccc4)nc3s2)c1 , same question.
Result: false

Q: O=C1c2ccccc2-c2c1nc1ccccc1[n+]2[O-] , same question.
Result: false

###

Test system: OVCAR-8 ovarian
method-description: NCI-60 one-dose screen, 48 h (100 = growth as untreated, 0 = no growth, -100 = all killed)
condition-summary: 10 µM unless noted
Protocol: Growth inhibition of the OVCAR-8 human tumor cell line is measured as a screen for anti-cancer activity. Cells are grown in 96 well plates and exposed to the test compound for 48 hours. Compounds are tested at a single concentration, which is 10^-5 M for most compounds. The reported endpoint is percent growth (GI% or GIPRCNT), where numbers from 0 - 100% represent growth inhibition, and numbers from -100% - 0 represent cell death. For example, a value of 40 represents 60% growth inhibition. […]
Compounds without any hit were thinned out: in the full panel of roughly 83,000, 20% have a hit.
Recorded growth by entry
Just the number in %, nothing appended.

{"columns": ["compound", "tested-on", "endpoint-label", "reported"],
 "data": [
  ["Cc1ccc(C(C)C)cc1NC(=O)Nc1ccc([N+](=O)[O-])cc1", "OVCAR-8 ovarian", "growth", 15.2],
  ["COc1cccc(-c2nnc(N)o2)c1", "OVCAR-8 ovarian", "growth", 98.7],
  ["CCOC(=O)c1c2c(c(C)n1Cc1ccc(OC)cc1)-c1nc(N)ncc1CC2", "OVCAR-8 ovarian", "growth", 115],
  ["COc1cc2c(cc1OCCCCCn1c(-c3ccc(OCc4ccccc4)cc3)nc3cc(N4CCOCC4)ccc31)N=C[C@@H]1CCCN1C2=O", "OVCAR-8 ovarian", "growth", 21.2]
]}

Q: Lookup: growth / OVCAR-8 ovarian / CCOC(=O)C1=NN(c2ccc(Cl)cc2)C2C3N(c4ccc(Cl)cc4)N=C(C(=O)OCC)N3c3ccccc3N12 (centres undefined)
Result: 101

Q: S=c1[nH]nc2sc3ccccc3n12 , same question.
Result: 107

Q: O=[N+]([O-])c1ccc(Oc2cccc(C(F)(F)F)c2)c([N+](=O)[O-])c1 , same question.
Result: 12.7

Q: CO[C@H]1/C=C/O[C@@]2(C)Oc3c(C)c(O)c4c(O)c(c(/C=N/N5C(C)CN(Cc6ccccc6)CC5C)c(O)c4c3C2=O)NC(=O)/C(C)=C\C=C\[C@H](C)[C@H](O)[C@@H](C)[C@@H](O)[C@@H](C)[C@H](OC(C)=O)[C@@H]1C (some centres undefined) , same question.
Result: 75.6

Q: CCN1C2=C(SC(=S)C1=C1SC(C(=O)OC)=C(C(=O)OC)S1)SC(=Nc1ccc(OC)cc1)C2=O , same question.
Result: -21.7

Q: Nc1cc(Cl)c(S(N)(=O)=O)cc1S(N)(=O)=O , same question.
Result: 115

Q: CCN1C[C@@H](C)n2c(c(O)c3c(=O)n(Cc4ccc(F)c(Cl)c4)nc(C(=O)NC)c32)C1=O , same question.
Result: 22

Q: NNC(=O)C1CC2c3ccccc3C1c1ccccc12 (centres undefined) , same question.
Result: 102

Q: O=C(Nc1ncc([N+](=O)[O-])s1)c1cccc([N+](=O)[O-])c1 , same question.
Result: 43.1

###

Test system: OVCAR-3 ovarian
method-description: NCI-60 one-dose screen, 48 h
condition-summary: 10 µM unless noted
This is part of a sample that, as a whole, favours compounds with a hit. Of some 83,000 tested, about 20% had one in any assay. Activity calls are given as the source filed them. Rule for the calls: active = growth percent below 10; inactive = the rest.
Bench note: report the call from True (active), False (inactive)

{"columns": ["molecule", "assigned-category"],
 "data": [
  ["Cc1cccc(Cl)c1NC(=O)c1ccc2nc(NC(=O)NC3CC(C)(C)NC(C)(C)C3)sc2c1", "False"],
  ["CCCCCCCC/C=C/CCCCCCCC1=NC(C)(C)CN1CC(C)O (stereo unspecified)", "False"]
]}

Q: Write down the call the test reported for this molecule. Item: ClC1C2CC(c3ccccc32)C1Cl (stereo unspecified)
Result: False

Q: Cc1ccccc1NC(=O)c1cc2ccccc2cc1O , same question.
Result: True

Q: CC(C)c1nc(N(C)S(C)(=O)=O)nc(-c2ccc(F)cc2)c1/C=C/[C@@H](O)C[C@@H](O)CC(=O)O , same question.
Result: False

Q: CO[C@H]1CC(O[C@@H]2/C(C)=C/C[C@@H]3C[C@@H](C[C@]4(CC[C@H](C)[C@@H](C5CCCCC5)O4)O3)OC(=O)[C@@H]3C=C(C)/C(=N/O)[C@H]4OC/C(=C\C=C\[C@@H]2C)[C@]43O)O[C@@H](C)C1O (stereo partly specified) , same question.
Result: True

###

System: T-47D breast
method-description: NCI-60 one-dose screen, 48 h
condition-summary: 10 µM unless noted
Compounds without any hit were thinned out: in the full panel of roughly 83,000, 20% have a hit. The source made the active and inactive calls. Rule for the calls: active = growth percent below 10; inactive = the rest.
Bench note: report the call from active, inactive

{"columns": ["molecule", "assigned-category"],
 "data": [
  ["CCCCCCCCCCC[C@@H](C[C@H]1OC(=O)[C@H]1CCCCCC)OC(=O)[C@@H](CC(C)C)NC=O", "inactive"]
]}

Q: Write down the call the test reported for this molecule. Item: CN(C)c1ccc2c(c1)/C(=N/O)c1ccccc1-2
Result: inactive

Q: Cc1cc(NC(=O)c2ccc(N)cc2)ccc1N=Nc1ccc2c(O)c(N=Nc3ccc(Cl)c(S(=O)(=O)O)c3)c(S(=O)(=O)O)cc2c1 , same question.
Result: inactive

Q: Cn1cc(-c2csc(-c3cn(C)c4ncccc34)n2)c2cc(F)cnc21 , same question.
Result: inactive

Q: O=C(O)c1ccccc1C(=O)OC1CCCC2CCCC21 (centres undefined) , same question.
Result: inactive

Q: CC(C)[C@H]1CC[C@H]2[C@@H](CC[C@H]3[C@](C)(CN)CCC[C@]23C)C1 , same question.
Result: inactive

Q: COc1ccc(OC)c2c1[nH]c(=O)c1c3ccccc3cn21 , same question.
Result: active

Q: C=C(C)[C@@H]1C/C=C(/C=O)CC[C@@H]2O[C@@]2(C)CC/C=C(\C)CC1 , same question.
Result: inactive

Q: COc1c(C)c2c(c(O)c1C/C=C(\C)CCC(=O)OCCN1CCOCC1)C(=O)OC2 , same question.
Result: inactive

###

System: SN12C renal
method-description: NCI-60 one-dose screen, 48 h (100 = growth as untreated, 0 = no growth, -100 = all killed)
condition-summary: 10 µM unless noted
The panel holds about 83,000 compounds, 20% with a hit somewhere; the sample as a whole holds those more often.
Recorded growth by entry
Just the number in %, nothing appended.

{"columns": ["molecule", "growth / %"],
 "data": [
  ["O=C1/C(=N/O)CCc2ccccc21", 96.1]
]}

Please find the next molecule below.
Q: Find the recorded growth belonging to CCOC(=O)c1c2c(c(C)n1Cc1ccccc1)-c1nc(N)ncc1CC2 and report it.
Result: 102

###

System: HCT-116 colon
method-description: NCI-60 one-dose screen, 48 h
condition-summary: 10 µM unless noted
About 83,000 compounds went through this panel and 20% of them were active in at least one assay; those are over-represented in the sample as a whole. Activity calls are given as the source filed them. The calls were made as follows: active = growth percent below 10; inactive = the rest.
Bench note: report the call from active, inactive

{"columns": ["compound", "assigned-category"],
 "data": [
  ["Cc1cc(C)c2c(c1)N1OC(C2)C[C@H]1/C=C/c1ccccc1 (some centres undefined)", "inactive"]
]}

We now examine a further compound.
Q: Write down the call the test reported for this compound. Item: O=C(/C=C/c1cc2ccccc2[nH]c1=O)c1ccc(O)cc1
Result: inactive

Data origin: PubChem BioAssay (NCI)
